The measurements presented in this section are drawn from the RNAGym collection of RNA variant scans (doi:10.1126/science.aae0568).

B1: tRNA (parent)
chain: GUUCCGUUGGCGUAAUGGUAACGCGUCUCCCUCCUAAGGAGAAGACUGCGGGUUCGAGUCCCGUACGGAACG

Variants of: B1
Experiment: yeast fitness relative to wild type (ratio to wild type); higher = fitter; tRNA-Arg(CCU), competitive growth, 37 C, YPD
Fewer inactive variants are shown than the library holds.
Rule: YES for yeast fitness not less than 0.6, NO for anything less.

{"POLYMER_SEQUENCE": "GUUCCGUUGGCGUAUUGGUAAGGCGUCUCCUUCCUAAGGAGAAGACUGCGGGUUCGAGUCCCGUACGGAACG", "LABEL": "NO"}
{"POLYMER_SEQUENCE": "GUUCCGUUGGCGUAAUGGUAACGCGUCUCCCCCCUAUGGAGAAGACUGGGGGUUCGAGUCCCGUACGGAUCG", "LABEL": "YES"}
{"POLYMER_SEQUENCE": "GUUCCGUUGGCGUAAUGGUAUCGCGUCUCCAUCCUAAGCAGAAGACUGCGGGUUCGAGUCCCGUAUGGAACG", "LABEL": "NO"}
{"POLYMER_SEQUENCE": "GUUCCGUUGGCAUAAUGGUAGCGCGUCUCCCUCCUAAGGAGAAGACUACGGGUUCGAGUCCCGUUCGGAACG", "LABEL": "NO"}
{"POLYMER_SEQUENCE": "GUUCAGUUGGCGUAAUGGUAACGCGUCUCCCUCCUAAGCAGAAGACUGCGGGUUCGAGUCCCGUACGGAACG", "LABEL": "YES"}

Hi, just wondering whether GUUCCGUUGGCGUAAUGGUAACGCGUCUCCCUCCUAAGGAGAAGACUGCGGGUUCGGGUUCCGUACGCAACG shows yeast fitness of 0.6 or higher.
NO

Please tell me: is the variant GUUCCGUUGGCGUAAUGGUAACGCGUCUCCUUCCUAAGGAGAAGAAUGCGGGUUCGCGUCCCGUUCGGAACG at or over 0.6 in terms of yeast fitness?
NO

Exam item: decide whether the reported yeast fitness for GUUCCGUUGGCGUAAUUGUAACGCAUCGCCCUCCUAAGGAGAAGACUGCGGGUUCGAAUCCCGUAGGGAACG is at least 0.6.
NO

Has GUUCCGUUGGCGUAAUGGUAAAGCGUCUCCGUCCUAAGGAGAAGAAUGUGGGUCCGAGUCCCGUACGAAACG a recorded yeast fitness greater than or equal to 0.6?
NO

Please check the record GUUCCGUUGGCGUAAUGGUAACGCGUCUCCCUCCUAAGGAGAAGACCGCGGGUUCGAGUCCCGUAAGGAACG and state if its yeast fitness is at or above 0.6.
YES

Say whether GCUCCGUUGGCGUAAUGGUAACGCGUCUCCCUCCUAAGGAGACGACUGCGGGUUCGAGUCCCGUACGGAACG shows yeast fitness of 0.6 or more.
YES

Is it the case that GUUCCGUUGGCGUAAUGGUAACGCGUAUCGCUCCUAAGGACAAGACUGCGGGUUCGAGUCGUGUACGGUACG has yeast fitness reaching or exceeding 0.6?
NO

Check if yeast fitness >= 0.6 (inclusive). Item: GUUCUGUUGGCGUCAUGGUAACGCGUCUCCCUCCUAAGGACAAGACUGCGGGUUCGACUCCCGUAUGGAACG
NO

Entry GUUCUGUUGGCGUAAUGCUAAAGCGUCUCCCUCCUAAGGAGAAGACUGCGCGUUCGAGUCCCGUACGGAACG : is its yeast fitness no less than 0.6?
NO

For this variant, is measured yeast fitness 0.6 or higher? GUUCCCUUGGCGUAAUGGUAACGCGCCUCCCUCCUAAGGAGACGACUGCGGGUUCGGGUCCCGUAUGGAACG
NO

Given the entry GUUCCGUUGGCGUAAUGGCAACGCGUCUCCGUCCAAAGGAGAAGACUGCGGGUUCGAGUCACGUACGGCACG , answer whether its yeast fitness meets or surpasses 0.6.
NO

Textbook exercise: given the entry GUUGCGUUCGCGUAAUGGUAACGCGUCUCCCUCAUGAGGCGAAGACUGCGGGUUCGAGUCCCGUACGGAACG , state whether its yeast fitness is greater than or equal to 0.6.
NO

Does the variant GUUCCGUUGGCGUAAUGGUGACGCGUCUCCCUCCUAAGGAGAAGACUGCGGGUUCGAGUCCCGUACUGCACG have recorded yeast fitness that is 0.6 or more?
NO
